B1: Azoarcus group I ribozyme (parent)
chain: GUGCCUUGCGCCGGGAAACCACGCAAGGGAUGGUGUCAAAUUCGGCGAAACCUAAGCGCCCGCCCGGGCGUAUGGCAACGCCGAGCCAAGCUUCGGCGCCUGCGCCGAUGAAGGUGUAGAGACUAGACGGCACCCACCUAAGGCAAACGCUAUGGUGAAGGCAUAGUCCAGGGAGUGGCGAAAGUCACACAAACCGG

Variants of: B1
METHOD NOTES: reverse-splicing fitness (ratio to wild type); higher = more active; in vitro selection; Mg2+ level not given
READOUT NAME: reverse-splicing fitness
Please state the value as a number alone, without comment.

Illustrative cases are given below, each with its answer.
{"MUTATION": "C82A A111U A145U C150U C169G U176A", "VALUE OBSERVED": 0.0142}
{"MUTATION": "C82U A111U A120G A145C C150G", "VALUE OBSERVED": 0.00668}
{"MUTATION": "C82A A111G A120G A145U C169A U176C", "VALUE OBSERVED": 0.0121}
{"MUTATION": "A111C A120C C150G C169G U176A", "VALUE OBSERVED": 0.00796}

Look up reverse-splicing fitness: A111U A145C C169U
0.108

Look up reverse-splicing fitness: C82U A111U A120G A145U C150A U176G
0.00425
